Reference source: patent US20230406838A1

Biological target: EGFR L858R/T790M/C797S (Homo sapiens, UniProt P00533, C797S/L858R/T790M)
Sequence (P00533 25-1210 T790M/C797S/L858R): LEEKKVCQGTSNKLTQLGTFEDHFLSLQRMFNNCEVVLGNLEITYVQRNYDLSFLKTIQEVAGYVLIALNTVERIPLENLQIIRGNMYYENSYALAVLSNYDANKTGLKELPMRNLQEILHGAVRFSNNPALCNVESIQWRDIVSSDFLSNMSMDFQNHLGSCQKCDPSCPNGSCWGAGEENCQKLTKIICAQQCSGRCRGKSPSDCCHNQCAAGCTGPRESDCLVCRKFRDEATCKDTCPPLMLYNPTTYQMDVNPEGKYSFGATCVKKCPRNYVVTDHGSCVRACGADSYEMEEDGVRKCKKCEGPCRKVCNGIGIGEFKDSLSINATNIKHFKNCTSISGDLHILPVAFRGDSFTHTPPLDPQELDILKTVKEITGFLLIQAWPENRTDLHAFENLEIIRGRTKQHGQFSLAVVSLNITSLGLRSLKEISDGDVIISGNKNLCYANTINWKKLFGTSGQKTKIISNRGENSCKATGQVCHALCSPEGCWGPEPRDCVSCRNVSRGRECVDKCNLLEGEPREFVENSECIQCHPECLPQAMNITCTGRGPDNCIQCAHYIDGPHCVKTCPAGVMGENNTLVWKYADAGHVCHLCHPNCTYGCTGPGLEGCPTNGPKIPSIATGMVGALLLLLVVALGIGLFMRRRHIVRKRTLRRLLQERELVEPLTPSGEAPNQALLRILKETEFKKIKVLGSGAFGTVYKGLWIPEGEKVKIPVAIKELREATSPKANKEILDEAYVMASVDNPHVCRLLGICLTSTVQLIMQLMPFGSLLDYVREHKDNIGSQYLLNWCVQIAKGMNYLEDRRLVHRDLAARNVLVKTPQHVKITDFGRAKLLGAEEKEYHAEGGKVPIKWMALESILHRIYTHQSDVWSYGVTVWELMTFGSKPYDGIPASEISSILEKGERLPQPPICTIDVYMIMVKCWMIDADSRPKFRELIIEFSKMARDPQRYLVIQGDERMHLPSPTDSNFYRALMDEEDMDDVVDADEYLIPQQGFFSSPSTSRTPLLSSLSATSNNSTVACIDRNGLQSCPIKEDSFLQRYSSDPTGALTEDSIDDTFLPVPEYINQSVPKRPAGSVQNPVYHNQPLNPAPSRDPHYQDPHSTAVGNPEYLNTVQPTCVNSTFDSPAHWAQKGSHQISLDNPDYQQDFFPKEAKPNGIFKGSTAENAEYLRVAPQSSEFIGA
Experiment: HTRF-based EGFR biochemical assay, L858R/T790M/C797S
Conditions: 100 μM ATP, enzyme 0.02 nM
measuredQuantity: IC50

Recorded results for 2 compounds are shown here.
linenotation=CSc1nc(-c2cccc(NC(=O)c3cc(O)ccc3F)c2)c[nH]1 measuredquantity=IC50 val="> 100 µM"
linenotation=CSc1nc(-c2cccc(NC(=O)c3c(F)ccc(O)c3CN3Cc4ccccc4C3=O)c2)c[nH]1 measuredquantity=IC50 val="> 100 µM"

Let's switch to this compound now.
Prompt: Consider the compound CSc1nc(-c2ccnc(NC(C)=O)c2)c(-c2cccc(NC(=O)c3c(F)ccc(O)c3CN3Cc4ccccc4C3=O)c2)n1C and give its measured IC50.
Completion: > 100 µM
